Molecular target: Tumor necrosis factor (Homo sapiens)
Experiment: Relative ex vivo cytokine induction in human whole blood stimulated with 10 ug/mL (done by ELISA) for Tumor necrosis factor alpha
Assay type: functional, tissue-based
Kindly state Induction for each of the entries shown.
# answer = number (no unit)

Item under review: CCCCCCCCCCCCCC(=O)O[C@H](CCCCCCCCCCC)CC(=O)NC1C(O)OC(COC2OC(CO)C(OP(=O)(O)O)C(OC(=O)C[C@@H](CCCCCCCCCCC)OC(=O)CCCCCCCCCCCCC)C2NC(=O)C[C@@H](CCCCCCCCCCC)OC(=O)CCCCCCCCCCCCC)C(O)C1O.CCN(CC)CC (some centres undefined) . Reported Induction?
1.7

// query: CCCCCCCCCCCCCCCC(=O)O[C@H](CCCCCCCCCCC)CC(=O)NC1C(O)OC(COC2OC(CO)C(OP(=O)(O)O)C(OC(=O)C[C@@H](CCCCCCCCCCC)OC(=O)CCCCCCCCCCCCC)C2NC(=O)C[C@@H](CCCCCCCCCCC)OC(=O)CCCCCCCCCCC)C(O)C1O.CCN(CC)CC (some centres undefined)
1.6

// query: CCCCCCCCCCC[C@H](CC(=O)NC1C(O)OC(COC2OC(CO)C(OP(=O)(O)O)C(OC(=O)C[C@@H](CCCCCCCCCCC)OC(=O)CCCCCCCCC)C2NC(=O)C[C@@H](CCCCCCCCCCC)OC(=O)CCCCCCCCC)C(O)C1O)OC(=O)CCCCCCCCC.CCN(CC)CC (some centres undefined)
3

// query: CCCCCCCCCCCC(=O)O[C@H](CCCCCCCCCCC)CC(=O)NC1C(O)OC(COC2OC(CO)C(OP(=O)(O)O)C(OC(=O)C[C@@H](CCCCCCCCCCC)OC(=O)CCCCCCCCCCC)C2NC(=O)C[C@@H](CCCCCCCCCCC)OC(=O)CCCCCCCCCCC)C(O)C1O.CCN(CC)CC (some centres undefined)
4.6
